quantity-name: melting point

Reference set (3 entries):
>  <compound>
CCOCCN1CCN(C(=O)c2cc3c(C(=O)Cc4c(Cl)cncc4Cl)ccc(OC)c3o2)CC1.O=C(O)/C=C/C(=O)O [Compound 17]

>  <melting point>
184 to 185 °C

$$$$
>  <compound>
CCC(CO)N1CCN(C(=O)c2cc3c(C(=O)Nc4c(Cl)cncc4Cl)ccc(OC)c3o2)CC1 (stereo not drawn) [Compound 5]

>  <melting point>
192 to 194 °C

$$$$
>  <compound>
COc1ccc(C(=O)Cc2c(Cl)cncc2Cl)c2cc(C(=O)N3CC(C)N(C)C(C)C3)oc12 (stereo not drawn) [Compound 25]

>  <melting point>
173 to 174 °C

$$$$

Prompt line: Any idea what its melting point is? The compound is COC(=O)c1ccc(C(=O)Nc2c(Cl)cncc2Cl)c2cc(N3CCN(C(C)CO)CC3)oc12 (stereo not drawn) [Compound 4]
Response line: 148 to 150 °C

Prompt line: Any idea what its melting point is? The compound is COc1ccc(C(=O)Cc2c(Cl)cncc2Cl)c2cc(C(=O)N3CCN(CCCO)CC3)oc12 [Compound 20]
Response line: 162 to 163 °C

Prompt line: Any idea what its melting point is? The compound is COc1ccc(C(=O)Cc2c(Cl)cncc2Cl)c2cc(C(=O)N3CCN(C)CC3)oc12 [Compound 13]
Response line: 160 to 161 °C

Prompt line: Any idea what its melting point is? The compound is "COc1ccc(CCc2c(Cl)cncc2Cl)c2cc(C(=O)N3CCN(C)CC3)oc12.O=C(O)/C=C/C(=O)O"
Response line: 186 to 187 °C

Prompt line: Any idea what its melting point is? The compound is "COc1ccc(CCc2c(Cl)cncc2Cl)c2cc(C(=O)N3CCN(CCO)CC3)oc12.O=C(O)/C=C/C(=O)O"
Response line: 184 to 185 °C

Prompt line: Any idea what its melting point is? The compound is COc1ccc(C(=O)Cc2c(Cl)cncc2Cl)c2cc(C(=O)N3CCN(CCOCCO)CC3)oc12 [Compound 23]
Response line: 132 to 133 °C

----------
# experimental-protocol: Water solubility
# Assay type: physicochemical
# recorded-conditions: read-out: water solubility
quantity-name: solubility

Prompt line: Any idea what its solubility is? The compound is COc1ccc(C(=O)Nc2c(Cl)cncc2Cl)c2cc(C(=O)c3ccccc3)oc12 [Compound Q, reference compound]
Response line: ≤ 1 µg/mL

----------
# assay-target: Recombinant Human PDE IV Enzyme (HSPDE4A) (Homo sapiens)
# Construct: except that 223 amino acids have been deleted from the N-terminal thereof; made in house; host or cells: E. coli
# experimental-protocol: Inhibition test on recombinant human PDE IV enzyme
# Format: biochemical
# recorded-conditions: concentration of test compound 10^−8 mol/L; [3H]cAMP substrate
quantity-name: Ratio of inhibition (%)

Reference set (2 entries):
>  <compound>
COc1ccc(C(=O)Nc2c(Cl)cncc2Cl)c2cc(C(=O)N3CC(C)N(CCO)C(C)C3)oc12 (stereo not drawn)

>  <Ratio of inhibition (%)>
48

$$$$
>  <compound>
CCN1CCN(C(=O)c2cc3c(C(=O)Nc4c(Cl)cncc4Cl)ccc(OC)c3o2)CC1.O=C(O)/C=C/C(=O)O

>  <Ratio of inhibition (%)>
20

$$$$

A: COc1ccc(C(=O)Nc2c(Cl)cncc2Cl)c2cc(C(=O)N3CCN(CCCO)CC3)oc12
B: CCC(CO)N1CCN(C(=O)c2cc3c(C(=O)Nc4c(Cl)cncc4Cl)ccc(OC)c3o2)CC1 (stereo not drawn)
Prompt line: For the pair A and B , which entry has the numerically smaller recorded Ratio of inhibition (%)? Answer by stating the label of the chosen item.
Response line: A

----------
# System: Male Sunkus murinus
# experimental-protocol: Vomiting test on male Sunkus
# Format: in vivo
# recorded-conditions: Dose (mg) 10; intraperitoneal; observed for 1 hour
quantity-name: Number of animals with vomiting/Number of tested animals

>  <compound>
COc1ccc(C(=O)Nc2c(Cl)cncc2Cl)c2cc(C(=O)N3CCN(CCO)CC3)oc12 [Compound 2]

>  <reported>
0/5

$$$$
>  <compound>
COc1ccc(C(=O)Cc2ccncc2)c2c1OC1(CCCC1)C2 [Compound P, reference compound]

>  <reported>
5/5

$$$$

Now let's try a different one.
Prompt line: Request: Number of animals with vomiting/Number of tested animals, test system Male Sunkus murinus, entry COc1ccc(C(=O)Nc2c(Cl)cncc2Cl)c2cc(C(=O)c3ccccc3)oc12 [Compound Q, reference compound]
Response line: 0/5

----------
# experimental-protocol: Water solubility
# Assay type: physicochemical
# recorded-conditions: Compound 1 upon conversion into monohydrochloride, read-out: dissolved in water (water solubility)
quantity-name: solubility (µg/mL)
Please give a number only; it is taken to be in µg/mL.

Prompt line: Any idea what its solubility is? The compound is "COc1ccc(C(=O)Nc2c(Cl)cncc2Cl)c2cc(C(=O)N3CCN(C)CC3)oc12"
Response line: 7.4

----------
quantity-name: melting point

Prompt line: Any idea what its melting point is? The compound is COc1ccc(C(=O)Cc2c(Cl)cncc2Cl)c2cc(C(=O)N3CCN(C(C)CO)CC3)oc12 (centres unmarked)
Response line: 187 to 189 °C

Prompt line: Any idea what its melting point is? The compound is "COc1ccc(C(=O)Nc2c(Cl)cncc2Cl)c2cc(C(=O)N3CCN(CCO)CC3)oc12"
Response line: 164 to 165 °C

Prompt line: Any idea what its melting point is? The compound is "CCN1CCN(C(=O)c2cc3c(C(=O)Nc4c(Cl)cncc4Cl)ccc(OC)c3o2)CC1.O=C(O)/C=C/C(=O)O"
Response line: 202 to 204 °C

----------
# assay-target: Recombinant Human PDE IV Enzyme (HSPDE4A) (Homo sapiens, UniProt P27815)
# Construct: except that 223 amino acids have been deleted from the N-terminal thereof; made in house; host or cells: E. coli
# Sequence (P27815 224-886 limits assumed): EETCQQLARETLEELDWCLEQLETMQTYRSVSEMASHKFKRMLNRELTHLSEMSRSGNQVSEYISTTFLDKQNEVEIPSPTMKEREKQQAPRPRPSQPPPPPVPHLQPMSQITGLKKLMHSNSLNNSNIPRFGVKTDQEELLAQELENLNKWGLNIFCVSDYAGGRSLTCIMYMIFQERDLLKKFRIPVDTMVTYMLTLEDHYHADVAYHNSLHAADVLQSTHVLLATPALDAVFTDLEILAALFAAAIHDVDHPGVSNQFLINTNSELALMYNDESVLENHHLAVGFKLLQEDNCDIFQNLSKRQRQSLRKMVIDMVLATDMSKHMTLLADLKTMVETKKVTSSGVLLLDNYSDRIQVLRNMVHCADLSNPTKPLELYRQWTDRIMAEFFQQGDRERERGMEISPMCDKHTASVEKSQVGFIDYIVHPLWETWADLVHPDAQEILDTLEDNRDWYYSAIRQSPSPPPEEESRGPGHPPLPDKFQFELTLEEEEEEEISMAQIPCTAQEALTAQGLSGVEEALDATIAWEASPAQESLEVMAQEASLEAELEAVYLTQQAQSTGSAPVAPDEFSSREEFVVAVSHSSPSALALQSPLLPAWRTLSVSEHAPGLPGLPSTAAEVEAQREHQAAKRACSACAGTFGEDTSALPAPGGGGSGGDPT
# experimental-protocol: Inhibition test on recombinant human PDE IV enzyme
# Type: biochemical
# recorded-conditions: concentration of test compound 10^−7 mol/L; [3H]cAMP substrate
# Method: Inhibition Test on Recombinant Human PDE IV Enzyme Human phosphodiesterase cDNA (HSPDE4A) was isolated from testicles. […] The PDE activity was measured in the following 2-step process according to the method of Kincaid, R. and Manganiello, V. [Method. […] This sample was subjected to chromatography on DEAE-Sephadex A-25, and the eluted [^3H]adenosine was counted with a scintillation counter. […]
quantity-name: Ratio of inhibition (%)

>  <molecule>
CCC(CO)N1CCN(C(=O)c2cc3c(C(=O)Nc4c(Cl)cncc4Cl)ccc(OC)c3o2)CC1 (stereo not shown)

>  <Ratio of inhibition (%)>
89

$$$$
>  <molecule>
COc1ccc(C(=O)Nc2c(Cl)cncc2Cl)c2cc(C(=O)N3CCN(CCCO)CC3)oc12

>  <Ratio of inhibition (%)>
81

$$$$
>  <molecule>
COc1ccc(C(=O)Nc2c(Cl)cncc2Cl)c2cc(C(=O)N3CC(C)N(C)C(C)C3)oc12 (stereo not shown)

>  <Ratio of inhibition (%)>
75

$$$$
>  <molecule>
COc1ccc(C(=O)Nc2c(Cl)cncc2Cl)c2cc(C(=O)N3CCN(CCCCO)CC3)oc12

>  <Ratio of inhibition (%)>
83

$$$$
>  <molecule>
COc1ccc(C(=O)Nc2c(Cl)cncc2Cl)c2cc(C(=O)N3CCN(CCOCCO)CC3)oc12

>  <Ratio of inhibition (%)>
78

$$$$
>  <molecule>
COC(=O)c1ccc(C(=O)Nc2c(Cl)cncc2Cl)c2cc(N3CCN(C(C)CO)CC3)oc12 (stereo not shown)

>  <Ratio of inhibition (%)>
85

$$$$
>  <molecule>
COc1ccc(C(=O)Nc2c(Cl)cncc2Cl)c2cc(C(=O)N3CCN(CCO)CC3)oc12

>  <Ratio of inhibition (%)>
72

$$$$
>  <molecule>
COc1ccc(C(=O)Nc2c(Cl)cncc2Cl)c2cc(C(=O)N3CCN(C)CC3)oc12

>  <Ratio of inhibition (%)>
75

$$$$
>  <molecule>
CCN1CCN(C(=O)c2cc3c(C(=O)Nc4c(Cl)cncc4Cl)ccc(OC)c3o2)CC1.O=C(O)/C=C/C(=O)O

>  <Ratio of inhibition (%)>
71

$$$$
>  <molecule>
COc1ccc(C(=O)Nc2c(Cl)cncc2Cl)c2cc(C(=O)N3CC(C)N(CCO)C(C)C3)oc12 (stereo not shown)

>  <Ratio of inhibition (%)>
88

$$$$

----------
# assay-target: Recombinant Human PDE IV Enzyme (HSPDE4A) (Homo sapiens)
# Construct: except that 223 amino acids have been deleted from the N-terminal thereof; made in house; host or cells: E. coli
# experimental-protocol: Inhibition test on recombinant human PDE IV enzyme
# Type: biochemical
# recorded-conditions: concentration of test compound 10^−8 mol/L; [3H]cAMP substrate
quantity-name: Ratio of inhibition (%)

>  <compound>
COc1ccc(C(=O)Nc2c(Cl)cncc2Cl)c2cc(C(=O)N3CCN(CCO)CC3)oc12

>  <quantity-name>
Ratio of inhibition (%)

>  <uom>
%

>  <reported>
22

$$$$
>  <compound>
COc1ccc(C(=O)Nc2c(Cl)cncc2Cl)c2cc(C(=O)N3CCN(CCCCO)CC3)oc12

>  <quantity-name>
Ratio of inhibition (%)

>  <uom>
%

>  <reported>
35

$$$$

I: COc1ccc(C(=O)Nc2c(Cl)cncc2Cl)c2cc(C(=O)N3CC(C)N(C)C(C)C3)oc12 (stereo not shown)
II: COC(=O)c1ccc(C(=O)Nc2c(Cl)cncc2Cl)c2cc(N3CCN(C(C)CO)CC3)oc12 (stereo not shown)
Prompt line: Lab notebook, comparison: I versus II , higher Ratio of inhibition (%) goes to which? Answer by stating the label of the chosen item.
Response line: II
